# MEASUREMENT_TARGET: T1, human 4-1BB (h4-1BB) on transiently transfected CHO cells (human, UniProt Q07011 24-255)
# T1 construct: also called TNFRSF9; CD137
# MEASUREMENT_PROTOCOL: flow cytometry, CHO cells transfected with human 4-1BB, antibody at 0.01 µg/ml
PROPERTY_MEASURED: percentage of cells with FITC signal (%)
Numeric answer only, unit % assumed.

Data request: Tell me the measured percentage of cells with FITC signal of 45-7E9 (antibody, V domains shown, mouse antibody purified from ascites) VH: QVQLKQSGPGLVQPSQSLSITCTVSGFSLTTYGVHWVRQPPGKGLEWLGVIWSDGNTDYNDAFISRLSITKDNSTSQVFFKMNGLQADDTAIYYCARNSITSVSFDCWGQGTTLTVSS VL: DIVMTQSQKFMSTSVGDRVSVTCKASQNVGTTVAWYQQRPGQSPKALICSASYRYSGVPDRFTGSGSGTDFTLTISNVQSEDLAEYFCQQYNSYPLTFGSGTKLEIK , please.
Data returned: 12.7

Data request: Looking for the measured percentage of cells with FITC signal of 70-3F9 (antibody, V domains shown, mouse antibody purified from ascites) VH: QVQLQQPGAELVRPGASVKLSCKASGYTFTSYWINWVKQRPGQGLEWIGNIFPSDSYTNYNQKFKDRAKLTVDKSSSTAYMQLSSPTSEDSAVYYCTRFGSSGYPDYYTMEYWGQGTSVTVSS VL: DIQMTQSPASLSASVGETVTITCRASGNIDNYLAWYQQKQGKSPQLLVYNAKTLAEGVPSRFSGSGSGTEYSLKINSLQPEDFGSYHCQQYWTIPYTFGGGTKLEIK , can you help?
Data returned: 3.37
